Test Protocol: protein stability index of a GFP-peptide fusion (GPS, HEK-293T) (PSI 1-6); higher = more stable;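 further: 24-mer peptide tiles fused after GFP, lentivirally expressed, FACS-sorted into six equal bins by GFP/DsRed ratio, decoded by Illumina sequencing, PSI is the read-weighted mean bin number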
Assay Conditions: treatment: DMSO; c terminus: native
Answer each item with its documented protein stability index.
Numbers only.

Req: Return protein stability index for the following sequence: YPGIRAGRKNAAPLTIRPPTDWE [TRIM39]
Resp: 3.44

Req: Entry EGSSQEDEDLGLSEGSSQDSGED [SPANXN3] needs its protein stability index filled in; supply it.
Resp: 5.55

Req: Look up protein stability index of EATTSDPQDLDMKKHRCKCCSIM [PALM] and report it.
Resp: 4.3

Hi! Can you tell me protein stability index for each of these sequences?
1. PKKIMPEAHSHYLYGHMLSAFRD [PPFIA4]
2. LQEKQKNEKLISLQEQLQRFLKK [TAF7L]
3. LSSSSARFLSRSIPSLQSEYVHY [CDC14A]

Resp:
1: 2.35; 2: 4.51; 3: 3.19

Please give protein stability index, item by item, for the list that follows.
1. TWGKNKPGIGAVILKRFCWLLLQ [FAN1]
2. PVSKPGALRRSLSRSMSQEAQRG [TCAP]
3. QSSNLFRHQRRHNAEKLLNVVKV [ZNF24]
4. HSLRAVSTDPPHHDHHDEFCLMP [BEX1]
5. RIVKIWDMTPVVGCSLATGFSPH [WDFY1]

Resp:
[3.45, 3.19, 1.84, 3, 2.05]
